Target: T1, C-terminally FLAG-tagged human Gas6 recombinant protein (hGas6-F) (human, UniProt Q14393 31-678, gamma-carboxylated glutamic acid residues in the Gla domain (producer cells co-express rat VKOR and human GGCX); positions not given)
T1 construct: also called human Gas6-F; human Gas6 protein
T1 sequence: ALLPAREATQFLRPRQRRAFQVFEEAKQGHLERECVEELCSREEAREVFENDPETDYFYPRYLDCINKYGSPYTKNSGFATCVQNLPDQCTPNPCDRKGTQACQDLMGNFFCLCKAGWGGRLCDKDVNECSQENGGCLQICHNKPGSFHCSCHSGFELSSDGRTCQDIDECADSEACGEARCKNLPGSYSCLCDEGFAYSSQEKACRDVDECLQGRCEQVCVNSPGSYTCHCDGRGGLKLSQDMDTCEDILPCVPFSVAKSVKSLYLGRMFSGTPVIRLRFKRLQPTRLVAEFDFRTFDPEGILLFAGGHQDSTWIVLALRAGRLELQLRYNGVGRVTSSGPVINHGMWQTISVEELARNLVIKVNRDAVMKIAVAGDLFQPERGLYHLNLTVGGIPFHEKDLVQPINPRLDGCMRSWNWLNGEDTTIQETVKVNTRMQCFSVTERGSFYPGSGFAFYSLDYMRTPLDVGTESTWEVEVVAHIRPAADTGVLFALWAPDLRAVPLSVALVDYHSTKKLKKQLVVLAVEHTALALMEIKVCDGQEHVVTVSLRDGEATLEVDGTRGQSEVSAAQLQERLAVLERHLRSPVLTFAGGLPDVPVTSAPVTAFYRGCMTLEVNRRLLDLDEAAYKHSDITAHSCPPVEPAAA
Experiment: SPR Biacore T100, captured antibody, Gas6 analyte, first test
A collection of binders and their measured koff
The figure you give is taken to be in s⁻¹; do not add the unit.

The cases that follow already have their koff on record.
hzKM5320 LV2bHV8 antibody (antibody, V domains shown, Humanized; variant human IgG4 constant region (EU S228P, L235E, R409K), human kappa; also called A-14) VH: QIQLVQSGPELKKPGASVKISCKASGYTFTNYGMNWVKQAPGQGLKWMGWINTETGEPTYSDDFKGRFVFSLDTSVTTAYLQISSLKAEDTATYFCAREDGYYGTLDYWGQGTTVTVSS VL: DVVMTQSPDSLAVSAGERVTINCKASQSVSNDVAWYQQKPGQSPKLLIYYASNRYTGVPDRFSGSGSGTDFTFTISSLQAEDVAVYYCQQDYSSPWTFGQGTKLEIK = 0.000791
hzKM5321 LV1bHV7 antibody (antibody, V domains shown, Humanized; variant human IgG4 constant region (EU S228P, L235E, R409K), human kappa; also called B-14; LV1bHV7) VH: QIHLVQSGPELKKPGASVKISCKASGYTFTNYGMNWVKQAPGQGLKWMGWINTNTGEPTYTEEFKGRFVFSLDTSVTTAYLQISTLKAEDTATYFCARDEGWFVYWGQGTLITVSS VL: ETTLTQSPSSLSASVGDRVTITCITSTDIDDDMNWYQQKPGKAPKLLISEGNTLRPGVPSRFSGSGSGTDFTLTISSLQPEDFADYYCLQTDSVPLTFGQGTKVEIK = 0.000751
hzKM5321 LV7aHV7 antibody (antibody, V domains shown, Humanized; variant human IgG4 constant region (EU S228P, L235E, R409K), human kappa; also called B-19; LV7aHV7) VH: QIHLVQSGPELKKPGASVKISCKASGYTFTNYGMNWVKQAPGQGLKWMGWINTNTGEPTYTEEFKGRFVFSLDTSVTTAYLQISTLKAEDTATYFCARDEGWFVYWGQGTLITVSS VL: ETTLTQSPSSLSVSTGDRVTITCITSTDIDDDMNWYQQKPGKPPKLLISEGNTLRPGVPSRFSSSGSGTDFTFTISSTQPEDFADYYCLQTDSVPLTFGQGTKVEIK = 0.000299

Now consider a different binder.
Data request: Field request: koff | item: hzKM5321 LV1bHV0 antibody (antibody, V domains shown, Humanized; variant human IgG4 constant region (EU S228P, L235E, R409K), human kappa; also called B-04; LV1bHV0) VH: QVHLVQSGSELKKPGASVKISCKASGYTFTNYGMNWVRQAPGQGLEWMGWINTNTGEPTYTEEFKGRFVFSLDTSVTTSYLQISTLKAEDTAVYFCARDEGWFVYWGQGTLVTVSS VL: ETTLTQSPSSLSASVGDRVTITCITSTDIDDDMNWYQQKPGKAPKLLISEGNTLRPGVPSRFSGSGSGTDFTLTISSLQPEDFADYYCLQTDSVPLTFGQGTKVEIK
Data returned: 0.000543
